Would you kindly list interaction score for each of these binders?
# SYSTEM NAME: T1, 4H2466-AA
# T1 chain: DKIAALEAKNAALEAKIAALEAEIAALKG
# EXPERIMENTAL PROTOCOL: two-hybrid library CCmax;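 further: natural log of median RNA to DNA barcode read ratio; higher means stronger binding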
# ASSAY CONTEXT: mean of both orientations
Numbers only.

Q) Which value of interaction score has been reported for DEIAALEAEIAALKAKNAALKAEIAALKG [4H122-AA] in the records?
A) 0.13

Q) What does the data say about its interaction score? Entry: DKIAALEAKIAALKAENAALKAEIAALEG [4H2393-AA]
A) 0.221

Hi team, please reply with interaction score for each item in this list.
1. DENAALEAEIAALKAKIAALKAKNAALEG [4H1135-AA]
2. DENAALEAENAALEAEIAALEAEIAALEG [4H1153-AA]

A)
-1.49
-1.53
